Numbers sourced from PubChem BioAssay (NCI).

Test system: SK-MEL-2 melanoma
Experiment: NCI tumour cell line growth inhibition, 48 h
endpoint: TGI (µM)
Express your answer in µM, writing the number without its unit.

Field: example entries. Status: answers known.
[
  {
    "compound": "CCN(CC)CCN1C(=O)CC2[C@@H]3CCc4cc(OC)ccc4C3CC[C@]2(C)C1=O (some centres not stated)",
    "endpoint": "TGI",
    "units.label": "µM",
    "endpoint.value": 37.4
  },
  {
    "compound": "O=C(Cc1ccc(F)cc1)NC1=C(Cl)C(=O)c2ccccc2C1=O",
    "endpoint": "TGI",
    "units.label": "µM",
    "endpoint.value": 6.33
  },
  {
    "compound": "O=C1C(c2ccc([N+](=O)[O-])cc2)=C(Cl)C(=O)c2c(O)cccc21",
    "endpoint": "TGI",
    "units.label": "µM",
    "endpoint.value": 34.3
  }
]

Below: the item to evaluate.
stdin: Give me measured TGI, please, for this compound: `O=C(CN(/C=C/C(=O)C(F)(F)F)c1ccc(Cl)cc1)c1ccc(F)cc1`
stdout: 21.4
